Answer each item with its documented activation at 1 µM.
target_system: glucocerebrosidase (Gcase) (Homo sapiens, UniProt P04062)
experiment: Glucocerebrosidase (Gcase) activation assay, 4-methylumbelliferyl-beta-D-glucopyranoside substrate, with saposin C
Type: biochemical
test_parameters: 1 μM test compound; read-out: Percent Gcase Activation 1 μM Test Compound

Study these solved cases before continuing.
compound | target_system | activation at 1 µM
Cc1cc(Oc2ccccn2)nc2c(C(=O)N[C@@H](C)C3CC3)ncn12 | glucocerebrosidase (Gcase) (Homo sapiens, UniProt P04062) | < 30%
COc1cc(F)cc(-c2cc(C)n3cnc(C(=O)NC(C4CC4)C(F)(F)F)c3n2)c1 (stereo not shown) | glucocerebrosidase (Gcase) (Homo sapiens, UniProt P04062) | > 60%

Your task in this section: give activation at 1 µM for each listed record.
1. COc1cncc(-c2cc(C)n3cnc(C(=O)N[C@@H](C)C4CC4)c3n2)c1
2. Cc1cc(OC2CC(F)(F)C2)nc2c(C(=O)NC(C3CC3)C(F)(F)F)ncn12 (stereo not shown)
3. Cc1cc(-c2cccc(F)c2)nc2c(C(=O)NC(C)C3CC3)ncn12 (stereo not shown)
4. Cc1cc(C)n2cnc(C(=O)NC(C3CC3)C(F)(F)F)c2n1 (stereo not shown)
5. C#CC(C)(C)NC(=O)c1ncn2c(C)cc(-c3cc(F)cc(F)c3)nc12

# output
1: 30 to 60%; 2: 30 to 60%; 3: > 60%; 4: 30 to 60%; 5: > 60%

* * *

target_system: glucocerebrosidase (Gcase) (Homo sapiens)
experiment: Glucocerebrosidase (Gcase) activation assay, 4-methylumbelliferyl-beta-D-glucopyranoside substrate, with saposin C
Type: biochemical
test_parameters: 0.1 μM test compound; read-out: Percent Gcase Activation 0.1 μM Test Compound
property_name: activation at 0.1 µM

compound | activation at 0.1 µM
C#Cc1cccc(C(NC(=O)c2ncn3c(C)cc(C)nc23)C(F)(F)F)c1 (stereo not shown) [III-3] | > 20%
Cc1cc(-c2ccc(F)cc2)nc2c(C(=O)NC(C)C3CCCO3)ncn12 (stereo not shown) [III-80] | < 10%
C#CC(C)(C)NC(=O)c1ncn2c(C)cc(-c3cc(F)cc(F)c3)nc12 [III-188] | 10 to 20%
COCCOc1cccc(-c2cc(C)n3cnc(C(=O)N[C@@H](C)C4CC4)c3n2)c1 [III-101] | 10 to 20%
COc1cccc(-c2cc(C)n3cnc(C(=O)NC(C4CC4)C(F)(F)F)c3n2)c1 (stereo not shown) [III-182] | > 20%

For each of the items listed, what is its activation at 0.1 µM?
1. CCc1cc(Oc2ccc(F)cc2)nc2c(C(=O)N[C@@H](C)C3CC3)ncn12 [III-166]
2. Cc1cc(-c2cccnc2)nc2c(C(=O)N[C@H]3CC[C@H](OC(C)(C)C)CC3)ncn12 [III-64]
3. Cc1cc(-c2cn(C)nn2)nc2c(C(=O)NC(C)(C)C3CC3)ncn12 [III-82]

# output
< 10%
< 10%
< 10%

Below are 8 compounds. Give each one its activation at 0.1 µM.
1. Cc1cc(-c2ccccn2)nc2c(C(=O)NC(c3ccc(F)cc3)C(F)(F)F)ncn12 (stereo not shown) [III-49]
2. Cc1cc(-c2cccnc2)nc2c(C(=O)NC(C3CC3)C(F)(F)F)ncn12 (stereo not shown) [III-71]
3. Cc1cc(C)n2cnc(C(=O)NC(C)C(C)C3CC3)c2n1 (stereo not shown) [III-47]
4. Cc1cc(-c2ccc(Cl)nc2)nc2c(C(=O)NC(C)(C)C3CC3)ncn12 [III-76]
5. Cc1cc(OC2CC2)nc2c(C(=O)NC(C3CC3)C3CC3)ncn12 [III-179]
6. Cc1cc(-c2ccnn2C)nc2c(C(=O)NC(C)(C)C3CC3)ncn12 [III-69]
7. Cc1cc(-c2cccnc2)nc2c(C(=O)NC(C)(C)C)ncn12 [III-89]
8. CCc1cc(-c2cccc(F)c2)nc2c(C(=O)N[C@@H](C)C3CC3)ncn12 [III-113]

# output
> 20%
< 10%
< 10%
10 to 20%
< 10%
< 10%
< 10%
> 20%

Hey, can you go through the list below and give me activation at 0.1 µM for every item?
1. COc1cncc(-c2cc(C)n3cnc(C(=O)N[C@@H](C)C4CC4)c3n2)c1 [III-97]
2. Cc1cc(-c2nc(Cl)cs2)nc2c(C(=O)NC(C)(C)C3CC3)ncn12 [III-140]
3. CNc1cc(C)n2cnc(C(=O)NC(c3ccc(F)cc3)C(F)(F)F)c2n1 (stereo not shown) [III-17]
4. C#Cc1cccc([C@@H](NC(=O)c2ncn3c(C)cc(C)nc23)C(F)(F)F)c1 [III-4]

# output
1: < 10%; 2: < 10%; 3: > 20%; 4: > 20%

Hey, quick one: what's activation at 0.1 µM for each of these?
1. Cc1cc(-c2cccc(F)c2)nc2c(C(=O)NC(C)(C)C(F)(F)F)ncn12 [III-183]
2. Cc1cc(N2CCC(F)(F)CC2)nc2c(C(=O)N[C@@H](C)C3CC3)ncn12 [III-115]
3. COc1cccc(-c2cc(C)n3cnc(C(=O)NC(C)C4CC4)c3n2)c1 (stereo not shown) [III-55]
4. COc1cc(-c2cc(C)n3cnc(C(=O)NC(C4CC4)C4CC4)c3n2)ccc1Cl [III-175]
5. Cc1cc(-c2ccccc2)nc2c(C(=O)NC(C)C3CC3)ncn12 (stereo not shown) [III-86]
6. Cc1cc(Oc2ccccn2)nc2c(C(=O)N[C@@H](C)C3CC3)ncn12 [III-121]
7. Cc1cc(-c2nccs2)nc2c(C(=O)NC(C)(C)C3CC3)ncn12 [III-61]
8. Cc1cc(-c2cccc(Cl)n2)nc2c(C(=O)N[C@@H](C)C3CC3)ncn12 [III-103]

# output
1: > 20%; 2: < 10%; 3: > 20%; 4: 10 to 20%; 5: > 20%; 6: < 10%; 7: 10 to 20%; 8: < 10%

* * *

Consider the following compounds; for each one, report its activation at 0.1 µM.
target_system: UniProt P04062
Sequence (P04062 40-536): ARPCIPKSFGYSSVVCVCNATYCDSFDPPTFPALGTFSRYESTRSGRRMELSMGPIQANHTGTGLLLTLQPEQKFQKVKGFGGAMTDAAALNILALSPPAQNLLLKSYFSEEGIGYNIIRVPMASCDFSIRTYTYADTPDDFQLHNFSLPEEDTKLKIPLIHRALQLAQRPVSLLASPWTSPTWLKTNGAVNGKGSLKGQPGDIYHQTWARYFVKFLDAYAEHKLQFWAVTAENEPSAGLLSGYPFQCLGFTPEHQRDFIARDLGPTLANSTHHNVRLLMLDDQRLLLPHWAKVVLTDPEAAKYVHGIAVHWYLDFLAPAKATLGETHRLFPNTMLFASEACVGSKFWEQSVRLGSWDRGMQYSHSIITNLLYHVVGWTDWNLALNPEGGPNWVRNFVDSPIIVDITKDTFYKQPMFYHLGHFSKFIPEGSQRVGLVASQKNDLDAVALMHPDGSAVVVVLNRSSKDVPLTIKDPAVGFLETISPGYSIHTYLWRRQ
experiment: Glucocerebrosidase (Gcase) activation assay, 4-methylumbelliferyl-beta-D-glucopyranoside substrate, with saposin C
Assay type: biochemical
test_parameters: 0.1 μM test compound; read-out: Percent Gcase Activation 0.1 μM Test Compound

Recorded activation at 0.1 µM, per entry:
compound | activation at 0.1 µM
Cc1cc(N2CCC(F)(F)CC2)nc2c(C(=O)NC(C)(C)C3CC3)ncn12 [III-118] | < 10%
Cc1cc(-n2ccnc2)nc2c(C(=O)NC(C)(C)C3CC3)ncn12 [III-67] | < 10%
Cc1cc(-c2ccns2)nc2c(C(=O)NC(C)(C)C3CC3)ncn12 [III-60] | 10 to 20%
Cc1cc(-c2cncc(F)c2)nc2c(C(=O)N[C@@H](C)C3CC3)ncn12 [III-105] | < 10%
Cc1cc(-c2cccc(Cl)c2)nc2c(C(=O)NC(C)(C)C(F)(F)F)ncn12 [III-185] | > 20%

Batch request: activation at 0.1 µM for each of the following compounds.
1. Cc1cc(-c2cc(F)cc(F)c2)nc2c(C(=O)N[C@@H](C)C3CC3)ncn12 [III-111]
2. COc1cc(F)cc(-c2cc(C)n3cnc(C(=O)NC(C4CC4)C(F)(F)F)c3n2)c1 (stereo not drawn) [III-170]
3. COCc1cc(-c2ccc(F)cc2)n2cnc(C(=O)N[C@@H](C)C3CC3)c2n1 [III-35]
4. Cc1cc(-c2ccc3ocnc3c2)nc2c(C(=O)N[C@@H](C)C3CC3)ncn12 [III-130]

# output
> 20%
> 20%
< 10%
> 20%

* * *

target_system: glucocerebrosidase (Gcase) (Homo sapiens, UniProt P04062)
experiment: Glucocerebrosidase (Gcase) activation assay, 4-methylumbelliferyl-beta-D-glucopyranoside substrate, with saposin C
Type: biochemical
test_parameters: test compound at 0.1 μM; read-out: Percent Gcase Activation, 0.1 μM Test Compound
property_name: activation at 0.1 µM

Answered examples (5):
molecule | assay_value
Cc1cc(C(=O)Nc2ccccc2)nc2c(C(=O)NC(C3CC3)C(F)(F)F)ncn12 (centres unmarked) | < 10%
COc1cccc(-c2cc(C)n3cnc(C(=O)N[C@H](C)C(F)(F)F)c3n2)c1 | 10 to 20%
COc1ccc(F)cc1-c1cc(C)n2cnc(C(=O)NC(C3CC3)C(F)(F)F)c2n1 (centres unmarked) | > 20%
Cc1cc(-c2cc(F)cc(C#N)c2)nc2c(C(=O)NC(C)(C)C)ncn12 | 10 to 20%
Cc1cc(-c2ccc3c(c2)OCO3)nc2c(C(=O)N[C@H](C)C3CC3)ncn12 | > 20%

Batch request: activation at 0.1 µM per item, same order as input.
1. Cc1sncc1-c1cc(C)n2cnc(C(=O)N[C@@H](C3CC3)C(F)(F)F)c2n1
2. Cc1cc(-c2cc(C#N)co2)nc2c(C(=O)NC(C3CC3)C(F)(F)F)ncn12 (centres unmarked)
3. COc1c(F)cccc1-c1cc(C)n2cnc(C(=O)N[C@@H](C)C3CC3)c2n1

# output
> 20%
10 to 20%
< 10%
